molecular target: UniProt Q13547; test: Simple Western immunoassay, HDAC1 levels in MM.1S cell lysates; type: cell-based; design: endogenous in cells; host or cells: MM.1S; details: MM.1S cells, 10 μM, 24 h
Sequence (Q13547 whole entry): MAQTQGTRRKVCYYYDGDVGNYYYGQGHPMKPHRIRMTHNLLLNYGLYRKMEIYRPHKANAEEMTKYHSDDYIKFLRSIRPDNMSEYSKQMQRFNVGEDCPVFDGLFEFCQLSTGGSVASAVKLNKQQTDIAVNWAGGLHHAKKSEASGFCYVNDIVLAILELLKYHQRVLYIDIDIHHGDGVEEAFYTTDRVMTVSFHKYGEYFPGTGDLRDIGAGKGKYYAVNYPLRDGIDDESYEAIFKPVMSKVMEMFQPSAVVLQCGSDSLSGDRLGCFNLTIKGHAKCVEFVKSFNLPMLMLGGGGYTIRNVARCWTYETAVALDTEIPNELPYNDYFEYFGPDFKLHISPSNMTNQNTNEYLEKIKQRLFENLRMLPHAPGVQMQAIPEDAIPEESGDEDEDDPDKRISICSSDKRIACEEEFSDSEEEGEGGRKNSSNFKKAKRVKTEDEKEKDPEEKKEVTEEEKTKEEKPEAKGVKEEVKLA
PROPERTY: reduction of HDAC1 levels (%)

[[record]]
compound = "O=C(CCCCCCNC(=O)c1ccc(NC(=O)CCCCCCCCCCCN(C(=O)CCl)C(C(=O)NCc2ccccc2)c2ccc(Cl)c(Cl)c2)cc1)NO (stereo not shown)"
property = "reduction of HDAC1 levels"
readout_number = 71

[[record]]
compound = "O=C(CCCCCCNC(=O)c1ccc(NC(=O)CCOCCOCCOCCOCCN(C(=O)CCl)C(C(=O)NCc2ccccc2)c2ccc(Cl)c(Cl)c2)cc1)NO (stereo not shown)"
property = "reduction of HDAC1 levels"
readout_number = 51

[[record]]
compound = "O=C(CCCCCCNC(=O)c1ccc(N(C(=O)CCl)C(C(=O)NCc2ccccc2)c2ccc(Cl)c(Cl)c2)cc1)NO (stereo not shown)"
property = "reduction of HDAC1 levels"
readout_number = 55


Taken from paper PMC12091851.
